Provenance of the data: patent US9771389B2

# Tested on: Bacillus subtilis ATCC6633
# protocol_description: Paper disc assay, Bacillus subtilis
# Format: cell-based
# measurement_setup: S; 0.1 mg/6 mm disc
value_type: Inhibition zone (mm)
Answers are plain numbers, in mm.

Example entries and their recorded answers appear below.
CC[C@H]1OC(=O)C[C@@H](O)[C@H](C)[C@@H](O[C@@H]2OC(C)[C@@H](O)C(N(C)C)C2O)[C@@H](CCn2cc(-c3ccc(N(C)C)cc3)nn2)C[C@@H](C)C(=O)/C=C/C(C)=C/[C@@H]1CO[C@@H]1OC(C)[C@@H](O)C(OC)C1OC (stereo partly drawn) [YT29]	7
CC[C@H]1OC(=O)C[C@@H](O)[C@H](C)[C@@H](O[C@@H]2OC(C)[C@@H](O)C(N(C)C)C2O)[C@@H](CCn2cc(CCCCCl)nn2)C[C@@H](C)C(=O)/C=C/C(C)=C/[C@@H]1CO[C@@H]1OC(C)[C@@H](O)C(OC)C1OC (stereo partly drawn) [YT19]	7
CC[C@H]1OC(=O)C[C@@H](O)[C@H](C)[C@@H](O[C@@H]2O[C@H](C)[C@@H](O)[C@H](N(C)C)[C@H]2O)[C@@H](CCN2C[C@H](C)C[C@H](C)C2)C[C@@H](C)C(=O)/C=C/C(C)=C/[C@@H]1CO[C@@H]1O[C@H](C)[C@@H](O)[C@@H](OC)[C@H]1OC [Tilmicosin, tilmicosin, reference compound]	14
CC[C@H]1OC(=O)C[C@@H](O)[C@H](C)[C@@H](O[C@@H]2O[C@H](C)[C@@H](O)[C@H](N(C)C)[C@H]2O)[C@@H](CCn2cc(-c3ccsc3)nn2)C[C@@H](C)C(=O)/C=C/C(C)=C/[C@@H]1CO[C@@H]1O[C@H](C)[C@@H](O)[C@@H](OC)[C@H]1OC [YT14]	8
CC[C@H]1OC(=O)C[C@@H](O)[C@H](C)[C@@H](O[C@@H]2OC(C)[C@@H](O)C(N(C)C)C2O)[C@@H](CCn2cc(-c3ccccn3)nn2)C[C@@H](C)C(=O)/C=C/C(C)=C/[C@@H]1CO[C@@H]1OC(C)[C@@H](O)C(OC)C1OC (stereo partly drawn) [YT12]	7

# ---- query compound ----
Supply reported Inhibition zone belonging to this compound: CC[C@H]1OC(=O)C[C@@H](O)[C@H](C)[C@@H](O[C@@H]2OC(C)[C@@H](O)C(N(C)C)C2O)[C@@H](CCn2cc(-c3ccccc3)nn2)C[C@@H](C)C(=O)/C=C/C(C)=C/[C@@H]1CO[C@@H]1OC(C)[C@@H](O)C(OC)C1OC (stereo partly drawn) [YT13]
9.5
